The reported measurements were obtained from ChEMBL document CHEMBL3991601.

- TGT: Serine/threonine-protein kinase LATS1 (Homo sapiens, UniProt O95835)
- Sequence (O95835 whole entry): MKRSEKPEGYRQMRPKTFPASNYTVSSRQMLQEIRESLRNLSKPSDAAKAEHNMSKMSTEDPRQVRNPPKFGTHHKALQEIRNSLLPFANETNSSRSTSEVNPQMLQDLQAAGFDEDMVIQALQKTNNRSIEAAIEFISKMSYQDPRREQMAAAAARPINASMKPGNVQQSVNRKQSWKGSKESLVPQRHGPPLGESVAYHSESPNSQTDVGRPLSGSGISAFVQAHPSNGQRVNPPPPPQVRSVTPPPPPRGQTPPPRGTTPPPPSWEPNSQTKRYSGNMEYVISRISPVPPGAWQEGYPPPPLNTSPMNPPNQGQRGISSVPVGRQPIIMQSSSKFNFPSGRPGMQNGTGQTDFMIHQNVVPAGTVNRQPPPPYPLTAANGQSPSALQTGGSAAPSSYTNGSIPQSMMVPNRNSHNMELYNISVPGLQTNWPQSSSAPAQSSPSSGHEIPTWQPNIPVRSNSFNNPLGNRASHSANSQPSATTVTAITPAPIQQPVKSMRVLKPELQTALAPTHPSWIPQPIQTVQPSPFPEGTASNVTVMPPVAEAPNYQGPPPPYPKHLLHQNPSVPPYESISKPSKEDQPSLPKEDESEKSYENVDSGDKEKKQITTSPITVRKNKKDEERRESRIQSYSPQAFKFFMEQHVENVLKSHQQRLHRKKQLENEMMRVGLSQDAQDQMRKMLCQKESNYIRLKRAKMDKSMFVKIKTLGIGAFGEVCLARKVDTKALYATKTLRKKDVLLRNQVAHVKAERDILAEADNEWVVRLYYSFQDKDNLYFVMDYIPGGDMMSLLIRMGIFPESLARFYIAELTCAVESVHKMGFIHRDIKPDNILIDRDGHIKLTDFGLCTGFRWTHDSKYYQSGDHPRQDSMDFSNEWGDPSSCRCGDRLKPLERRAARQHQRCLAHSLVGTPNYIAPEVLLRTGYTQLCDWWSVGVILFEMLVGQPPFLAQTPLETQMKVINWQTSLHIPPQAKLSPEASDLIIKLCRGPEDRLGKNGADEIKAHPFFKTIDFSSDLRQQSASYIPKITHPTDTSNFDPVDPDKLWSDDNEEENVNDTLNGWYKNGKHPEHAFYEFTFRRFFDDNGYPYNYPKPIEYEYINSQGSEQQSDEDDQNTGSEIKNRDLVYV
Where a name gives a salt, the structure may show the parent alone. Active and inactive are the calls of the source.
Please state which outcome applies, choosing from yes (1) (active), no (0) (inactive)

input: Which outcome was entered for the compound CCS(=O)(=O)N1CCN(c2ccc(Nc3ncc(C(N)=O)c(NC4CC4)n3)cc2)CC1 [Cerdulatinib Hydrochloride] in this test?
output: yes (1)

input: Could you please tell me the result logged for "CO[C@H]1C[C@@H]2CC[C@@H](C)[C@@](O)(O2)C(=O)C(=O)N2CCCC[C@H]2C(=O)O[C@H]([C@H](C)C[C@@H]2CC[C@@H](O)[C@H](OC)C2)CC(=O)[C@H](C)/C=C(\C)[C@@H](O)[C@@H](OC)C(=O)[C@H](C)C[C@H](C)/C=C/C=C/C=C/1C" in this assay?
output: no (0)

input: Which outcome was entered for the compound "COc1ccc(S(=O)(=O)N(C(C)=O)c2ccccc2/C=C/c2cc[n+]([O-])cc2)cc1" in this test?
output: no (0)
